The reported numbers originate from ChEMBL document CHEMBL3988442.

The reader will find reported Percent Effect values listed item by item below.
System: Wolbachia pipientis
assay.remarks: Anti-Wolbachia Cell-Based Screen
Type: functional
Set-up: scale not given: in the data most compounds retested in dose-response had high values
experimental.setup: 5 µM
Screen size: about 48,000 compounds; about 13,000 (27%) showed an effect of 50% or more. The list shows a part of the results.
readout: Percent Effect (%)

[[record]]
smiles_entry = "O=C(CC1CC1)N1CC[C@@H]2[C@H](CC1)N(Cc1cccnc1)CCS2(=O)=O.O=C(O)C(F)(F)F.O=C(O)C(F)(F)F"
readout = "Percent Effect"
result_units = "%"
experimental_value = 93.65

[[record]]
smiles_entry = "CC(C)C(=O)N1CC[C@@H]2[C@H](CC1)N(Cc1cccnc1)CCS2(=O)=O.O=C(O)C(F)(F)F.O=C(O)C(F)(F)F"
readout = "Percent Effect"
result_units = "%"
experimental_value = 86.93

[[record]]
smiles_entry = "Cc1cccc(CN2CCS(=O)(=O)[C@@H]3CCN(C(=O)C4CC4)CC[C@@H]32)n1.O=C(O)C(F)(F)F"
readout = "Percent Effect"
result_units = "%"
experimental_value = 4.108

[[record]]
smiles_entry = "CCS(=O)(=O)N1CC[C@@H]2[C@H](CC1)N(Cc1cccc(C)n1)CCS2(=O)=O.O=C(O)C(F)(F)F"
readout = "Percent Effect"
result_units = "%"
experimental_value = -2.049

